# Test system: NCI/ADR-RES ovarian
# assay.overview: NCI-60 one-dose screen, 48 h (100 = growth as untreated, 0 = no growth, -100 = all killed)
# measurement.context: 10 µM unless noted
This is part of a sample that, as a whole, favours compounds with a hit. Of some 83,000 tested, about 20% had one in any assay.
growth: recorded values
Please state the figure in %; there is no need to write the unit.

Reference set (2 entries):
[
  {
    "compound": "COC(=O)C(Cc1cnc[nH]1)N1CC(=O)N2[C@@H](c3ccccc3)SC[C@H]2C1=O (stereo partly specified)",
    "growth [%]": 107
  },
  {
    "compound": "CCCCN(CCCC)c1ccc(C(=O)O)cc1",
    "growth [%]": 106
  }
]

(Q) Given the compound N#Cc1c2ncccc2c2nnc3cc(Cl)c(Cl)cc3n12 , what is its reported growth?
(A) 99.8

(Q) Now consider CCOC1=C(Cl)C(=O)C(OCC)=C(Cl)C1=O and answer again.
(A) 100

(Q) Now consider O=C(Oc1ccccc1)c1ccccc1Cl and answer again.
(A) 104

(Q) Now consider CCC(C)(CC)c1ccc(O)c(C)c1 and answer again.
(A) 102

* * *

# Tested on: NCI-H322M lung
# assay.overview: NCI-60 one-dose screen, 48 h (100 = growth as untreated, 0 = no growth, -100 = all killed)
# measurement.context: 10 µM unless noted
Compounds without any hit were thinned out: in the full panel of roughly 83,000, 20% have a hit.
growth: recorded values
Please state the figure in %; there is no need to write the unit.

Reference set (6 entries):
[
  {
    "compound": "Cc1nnc(/N=C2\\NC(=O)/C(=C/C=C/c3ccccc3)S2)s1",
    "target.or.system": "NCI-H322M lung",
    "growth / %": 72.8
  },
  {
    "compound": "O=C(CCl)c1ccc2c(c1)CCCC2",
    "target.or.system": "NCI-H322M lung",
    "growth / %": 94.3
  },
  {
    "compound": "O=C(NC(=S)NNC(=S)NNc1ccccc1)c1ccccc1",
    "target.or.system": "NCI-H322M lung",
    "growth / %": 68.2
  },
  {
    "compound": "COc1ccccc1Nc1nnc(COc2ccc(CNC(=O)CCCC/C=C/C(C)C)cc2OC)o1",
    "target.or.system": "NCI-H322M lung",
    "growth / %": 97.4
  },
  {
    "compound": "CCCCCC(=C/c1ccccc1)/C=N/N=C(N)N",
    "target.or.system": "NCI-H322M lung",
    "growth / %": 20.3
  },
  {
    "compound": "COc1cc(N)c2nccc(C)c2c1OC",
    "target.or.system": "NCI-H322M lung",
    "growth / %": 106
  }
]

(Q) Given the compound CC(O)C(N)=O (stereo not given) , what is its reported growth?
(A) 108

(Q) Now consider O=C1/C(=C\c2cn(-c3nc(N4CCOCC4)nc(N4CCOCC4)n3)c3ccccc23)c2ccccc2N1c1c(Cl)cccc1Cl and answer again.
(A) 28.2

* * *

# Test system: U251 CNS
# assay.overview: NCI-60 one-dose screen, 48 h (100 = growth as untreated, 0 = no growth, -100 = all killed)
# measurement.context: 10 µM unless noted
This is part of a sample that, as a whole, favours compounds with a hit. Of some 83,000 tested, about 20% had one in any assay.
growth: recorded values
Please state the figure in %; there is no need to write the unit.

Reference set (4 entries):
[
  {
    "substance.smiles": "COc1ccc(-c2nc(SCC(C)C)nc(Nc3ccc(C(=O)O)cc3)c2C#N)cc1",
    "target.or.system": "U251 CNS",
    "endpoint.name": "growth",
    "assay.result": 94.8
  },
  {
    "substance.smiles": "Cc1c(CN(C)C)cc(C(C)C)cc1C(C)C",
    "target.or.system": "U251 CNS",
    "endpoint.name": "growth",
    "assay.result": 100
  },
  {
    "substance.smiles": "CC(=O)c1ccc2c(c1)c1ccccc1n2C",
    "target.or.system": "U251 CNS",
    "endpoint.name": "growth",
    "assay.result": 94.8
  },
  {
    "substance.smiles": "O=C(NC1CCN(Cc2ccccc2)CC1)c1cc(-c2cccnc2)nc2ccc(Cl)cc12",
    "target.or.system": "U251 CNS",
    "endpoint.name": "growth",
    "assay.result": 56.2
  }
]

(Q) Given the molecule CC(=O)Nc1nc(C)c(C(=O)NN)s1 , what is its reported growth?
(A) 92.1

(Q) Now consider COc1cc2c(/C=C3\C(=O)Nc4ccc(Br)cc43)c(Cl)n(C)c2cc1C and answer again.
(A) 10.2

This collection of values is drawn from PubChem BioAssay (NCI).
